Target: EfBChE (butyrylcholinesterase from equine serum) (Equus caballus, UniProt P81908)
Construct: EfBChE from equine serum (Equus ferus); from tissue; host or cells: equine serum
Sequence (P81908 whole entry): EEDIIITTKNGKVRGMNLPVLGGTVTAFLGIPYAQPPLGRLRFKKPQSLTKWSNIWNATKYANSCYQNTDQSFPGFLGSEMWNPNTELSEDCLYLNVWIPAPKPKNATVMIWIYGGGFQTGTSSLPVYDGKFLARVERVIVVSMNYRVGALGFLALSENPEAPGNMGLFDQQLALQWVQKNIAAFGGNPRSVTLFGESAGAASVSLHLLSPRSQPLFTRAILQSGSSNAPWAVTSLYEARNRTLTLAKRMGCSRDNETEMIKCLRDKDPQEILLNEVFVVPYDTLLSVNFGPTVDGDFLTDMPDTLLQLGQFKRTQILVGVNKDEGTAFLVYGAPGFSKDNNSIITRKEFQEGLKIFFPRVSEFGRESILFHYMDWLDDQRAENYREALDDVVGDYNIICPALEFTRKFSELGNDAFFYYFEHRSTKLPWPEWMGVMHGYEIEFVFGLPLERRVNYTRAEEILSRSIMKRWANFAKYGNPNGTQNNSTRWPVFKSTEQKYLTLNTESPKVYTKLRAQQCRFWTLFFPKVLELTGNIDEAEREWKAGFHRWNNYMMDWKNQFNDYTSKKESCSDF
Experiment: biochemical
Format: biochemical
Settings: ratio of EfBChE to EeAChE IC50 values
Provide the recorded SI, selectivity index based on IC50 values (EeAChE vs EfBChE) for the entries that follow.
One number for each entry.

Completed entries (count: 2):
COc1cc2c(cc1OCc1ccc(F)cc1)C(=O)C(CC1CCN(Cc3ccccc3)CC1)C2 (centres unmarked); 7.0
COc1cc2c(cc1OCc1cc(F)ccc1F)C(=O)C(CC1CCN(Cc3ccccc3)CC1)C2 (centres unmarked); 6.7

Your task in this section: give SI, selectivity index based on IC50 values (EeAChE vs EfBChE) for each listed record.
1. COc1cc2c(cc1OCc1ccc(Br)cc1)C(=O)C(CC1CCN(Cc3ccccc3)CC1)C2 (centres unmarked)
2. COc1cc2c(cc1OCc1ccc(C)cc1)C(=O)C(CC1CCN(Cc3ccccc3)CC1)C2 (centres unmarked)
3. COc1cc2c(cc1OCCBr)C(=O)C(CC1CCN(Cc3ccccc3)CC1)C2 (centres unmarked)
4. COc1cc2c(cc1OCc1cccc(F)c1)C(=O)C(CC1CCN(Cc3ccccc3)CC1)C2 (centres unmarked)
5. COc1cc2c(cc1OCCCN)C(=O)C(CC1CCN(Cc3ccccc3)CC1)C2 (centres unmarked)
6. COc1cc2c(cc1OCc1ccc([N+](=O)[O-])cc1)C(=O)C(CC1CCN(Cc3ccccc3)CC1)C2 (centres unmarked)

Result:
1: 10; 2: 4.3; 3: 30; 4: 6.0; 5: 11; 6: 3.5

* * *

Target: EfBChE (butyrylcholinesterase from equine serum) (Equus caballus, UniProt P81908)
Construct: EfBChE from equine serum (Equus ferus); from tissue; host or cells: equine serum
Experiment: biochemical
Format: biochemical
Settings: with standard error; 25 °C, 10 min preincubation; read-out: IC50, inhibition of EfBChE
Measured endpoint: IC50 (µM)
One number for each entry, in µM.

Completed entries (count: 3):
COc1cc2c(cc1O)C(=O)C(CC1CCN(Cc3ccccc3)CC1)C2 (stereo not shown); 4.3
COc1cc2c(cc1OCc1ccc(Br)cc1)C(=O)C(CC1CCN(Cc3ccccc3)CC1)C2 (stereo not shown); 0.72
COc1cc2c(cc1OCc1ccc(F)cc1)C(=O)C(CC1CCN(Cc3ccccc3)CC1)C2 (stereo not shown); 0.57

The molecule listed as COc1cc2c(cc1OCCCl)C(=O)C(CC1CCN(Cc3ccccc3)CC1)C2 (stereo not shown) shows IC50 equal to 1.3

* * *

The reader will find IC50 measurements below, all made with BACE1 (Homo sapiens, UniProt P56817).
Sequence (P56817 46-457): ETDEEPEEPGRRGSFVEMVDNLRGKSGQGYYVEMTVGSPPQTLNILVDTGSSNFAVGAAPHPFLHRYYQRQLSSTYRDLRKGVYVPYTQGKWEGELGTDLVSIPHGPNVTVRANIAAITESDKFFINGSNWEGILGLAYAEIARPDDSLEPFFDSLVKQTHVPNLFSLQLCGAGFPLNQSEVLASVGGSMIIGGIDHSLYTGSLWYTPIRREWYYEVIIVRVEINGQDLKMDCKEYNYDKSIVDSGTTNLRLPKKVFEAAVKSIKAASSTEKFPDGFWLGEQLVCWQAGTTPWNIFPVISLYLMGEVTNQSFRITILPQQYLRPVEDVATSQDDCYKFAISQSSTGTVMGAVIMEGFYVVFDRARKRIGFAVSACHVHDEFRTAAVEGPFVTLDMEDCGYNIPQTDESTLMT
Numbers only, in µM.

Your task in this section: give IC50 for each listed record.
1. COc1cc2c(cc1OCc1ccccc1C(F)(F)F)C(=O)C(CC1CCN(Cc3ccccc3)CC1)C2 (stereo not shown) [Compound 8p]
2. COc1cc2c(cc1OCCBr)C(=O)C(CC1CCN(Cc3ccccc3)CC1)C2 (stereo not shown) [Compound 8e]
3. COc1cc2c(cc1OCc1ccc(Br)cc1)C(=O)C(CC1CCN(Cc3ccccc3)CC1)C2 (stereo not shown) [Compound 8l]

Result:
1: 34; 2: 7.9; 3: 3.4

* * *

Biological target: HsAChE (acetylcholinesterase from Homo sapiens) (Homo sapiens, UniProt P22303)
Sequence (P22303 32-614): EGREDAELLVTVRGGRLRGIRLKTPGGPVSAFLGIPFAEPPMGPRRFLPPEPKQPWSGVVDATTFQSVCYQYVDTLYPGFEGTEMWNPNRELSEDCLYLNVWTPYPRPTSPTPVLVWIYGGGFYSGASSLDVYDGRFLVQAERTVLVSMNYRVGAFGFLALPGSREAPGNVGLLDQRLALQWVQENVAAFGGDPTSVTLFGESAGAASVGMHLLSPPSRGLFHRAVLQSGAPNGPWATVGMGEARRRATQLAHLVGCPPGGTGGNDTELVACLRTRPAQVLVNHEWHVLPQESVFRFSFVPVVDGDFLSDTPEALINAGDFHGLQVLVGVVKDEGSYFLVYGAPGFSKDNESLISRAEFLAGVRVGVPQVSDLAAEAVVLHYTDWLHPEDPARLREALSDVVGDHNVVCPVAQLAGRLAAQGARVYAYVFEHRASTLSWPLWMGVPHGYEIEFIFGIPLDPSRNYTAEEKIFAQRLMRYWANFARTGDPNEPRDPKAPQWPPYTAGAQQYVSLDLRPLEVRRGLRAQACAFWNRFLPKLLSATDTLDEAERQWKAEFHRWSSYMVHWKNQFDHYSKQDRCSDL
Test: biochemical
Settings: 37 °C; read-out: IC50, inhibition of HsAChE
Measured endpoint: pIC50
Give bare numbers, as −log10 of the molar value.

Recorded pIC50 for COc1cc2c(cc1OCc1ccc(Br)cc1F)C(=O)C(CC1CCN(Cc3ccccc3)CC1)C2 (stereo not shown) on HsAChE (acetylcholinesterase from Homo sapiens) (Homo sapiens, UniProt P22303) was 8.74
